Source of measurements: patent US20260033491A1

system: Beauveria bassiana spores; experiment: Spore viability (germination rate) of Beauveria bassiana spores dispersed in fluid and stored at 30° C.; assay type: cell-based; details: Beauveria bassiana spores in fluid, storage at 30° C., 14 d
MEASURED_QUANTITY: spore viability [%] after 2 w (14 d) (%)

[
  {
    "COMPOUND": "CC(C)CCCCCCOC(=O)C1CCCCC1C(=O)OCCCCCCC(C)C (stereo not drawn) [Agnique AE829]",
    "TESTED_SYSTEM": "Beauveria bassiana spores",
    "MEASURED_VALUE": 74.9
  },
  {
    "COMPOUND": "CCCCCCCC/C=C\\CCCCCCCC(=O)OCC(CC)CCCC (stereo not drawn) [Radia 7331, 2-Ethylhexyl oleate]",
    "TESTED_SYSTEM": "Beauveria bassiana spores",
    "MEASURED_VALUE": 81.4
  },
  {
    "COMPOUND": "CCCCOC(=O)CCCCC(=O)OCCCC [Adimoll DB, di-n-Butyl adipate]",
    "TESTED_SYSTEM": "Beauveria bassiana spores",
    "MEASURED_VALUE": 66.1
  },
  {
    "COMPOUND": "CC(=O)OCC(COC(C)=O)OC(C)=O [Triacetin, Glycerin triacetate]",
    "TESTED_SYSTEM": "Beauveria bassiana spores",
    "MEASURED_VALUE": 58.6
  },
  {
    "COMPOUND": "CCCCCCCCCCCC(=O)OCC(CC)CCCC (stereo not drawn) [Radia 7127, 2-Ethylhexyl laurate]",
    "TESTED_SYSTEM": "Beauveria bassiana spores",
    "MEASURED_VALUE": 76.3
  },
  {
    "COMPOUND": "CCCCOC(=O)CC(CC(=O)OCCCC)(OC(C)=O)C(=O)OCCCC [Acetyltributylcitrat, O-Acetyl citric acid tributyl ester]",
    "TESTED_SYSTEM": "Beauveria bassiana spores",
    "MEASURED_VALUE": 76.7
  }
]

====

Entries and their spore viability [%] at day 1
test system: Beauveria bassiana spores; assay: Spore viability (germination rate) of Beauveria bassiana spores dispersed in fluid and stored at 30° C.; type: cell-based; details: Beauveria bassiana spores in fluid, day 1
MEASURED_QUANTITY: spore viability [%] at day 1 (%)

[
  {
    "COMPOUND": "CC(=O)OCC(COC(C)=O)OC(C)=O [Triacetin, Glycerin triacetate]",
    "TESTED_SYSTEM": "Beauveria bassiana spores",
    "MEASURED_QUANTITY": "spore viability [%] at day 1",
    "DISPLAY_UNIT": "%",
    "MEASURED_VALUE": 89.3
  },
  {
    "COMPOUND": "CCCCOC(=O)CCCCC(=O)OCCCC [Adimoll DB, di-n-Butyl adipate]",
    "TESTED_SYSTEM": "Beauveria bassiana spores",
    "MEASURED_QUANTITY": "spore viability [%] at day 1",
    "DISPLAY_UNIT": "%",
    "MEASURED_VALUE": 87
  },
  {
    "COMPOUND": "CC(C)CCCCCCOC(=O)C1CCCCC1C(=O)OCCCCCCC(C)C (stereo not drawn)",
    "TESTED_SYSTEM": "Beauveria bassiana spores",
    "MEASURED_QUANTITY": "spore viability [%] at day 1",
    "DISPLAY_UNIT": "%",
    "MEASURED_VALUE": 89.7
  },
  {
    "COMPOUND": "CCCCCCCCCCCC(=O)OCC(CC)CCCC (stereo not drawn) [Radia 7127, 2-Ethylhexyl laurate]",
    "TESTED_SYSTEM": "Beauveria bassiana spores",
    "MEASURED_QUANTITY": "spore viability [%] at day 1",
    "DISPLAY_UNIT": "%",
    "MEASURED_VALUE": 91.3
  },
  {
    "COMPOUND": "CCCCOC(=O)CC(CC(=O)OCCCC)(OC(C)=O)C(=O)OCCCC",
    "TESTED_SYSTEM": "Beauveria bassiana spores",
    "MEASURED_QUANTITY": "spore viability [%] at day 1",
    "DISPLAY_UNIT": "%",
    "MEASURED_VALUE": 85.5
  },
  {
    "COMPOUND": "CCCCCCCC/C=C\\CCCCCCCC(=O)OCC(CC)CCCC (stereo not drawn) [Radia 7331, 2-Ethylhexyl oleate]",
    "TESTED_SYSTEM": "Beauveria bassiana spores",
    "MEASURED_QUANTITY": "spore viability [%] at day 1",
    "DISPLAY_UNIT": "%",
    "MEASURED_VALUE": 91.5
  }
]

====

tested on: Purpureocillium lilacinum spores; test: Spore viability (germination rate) of Purpureocillium lilacinum spores dispersed in fluid and stored at 30° C.; type: cell-based; conditions: P. lilacinum spores in fluid, storage at 30° C., 27-28 d

[
  {
    "MOLECULE": "CCCCCCCC/C=C\\CCCCCCCC(=O)OCC(CC)CCCC (stereo not drawn) [Radia 7331, 2-Ethylhexyl oleate]",
    "TESTED_SYSTEM": "Purpureocillium lilacinum spores",
    "spore viability [%] after 1 m (27-28 d) / %": 95.9
  },
  {
    "MOLECULE": "CCCCCCCC/C=C\\CCCCCCCC(=O)OCC(CC)CCCC (stereo not drawn) [Radialube 7130, 2-Ethylhexyl oleate]",
    "TESTED_SYSTEM": "Purpureocillium lilacinum spores",
    "spore viability [%] after 1 m (27-28 d) / %": 94.3
  },
  {
    "MOLECULE": "CC(=O)OCC(COC(C)=O)OC(C)=O [Triacetin, Glycerin triacetate]",
    "TESTED_SYSTEM": "Purpureocillium lilacinum spores",
    "spore viability [%] after 1 m (27-28 d) / %": 96.2
  },
  {
    "MOLECULE": "CCCCCCCCCCCC(=O)OCC(CC)CCCC (stereo not drawn) [Radia 7127, 2-Ethylhexyl laurate]",
    "TESTED_SYSTEM": "Purpureocillium lilacinum spores",
    "spore viability [%] after 1 m (27-28 d) / %": 98.3
  },
  {
    "MOLECULE": "CC(C)OC(=O)CCCCC(=O)OC(C)C [Crodamol DA, Diisopropyl adipate]",
    "TESTED_SYSTEM": "Purpureocillium lilacinum spores",
    "spore viability [%] after 1 m (27-28 d) / %": 95.0
  },
  {
    "MOLECULE": "CC(C)CCCCCCOC(=O)C1CCCCC1C(=O)OCCCCCCC(C)C (stereo not drawn)",
    "TESTED_SYSTEM": "Purpureocillium lilacinum spores",
    "spore viability [%] after 1 m (27-28 d) / %": 96.5
  }
]
